# Tested on: HT29 colon
# method: NCI tumour cell line growth inhibition, 48 h
Assignment: determine reported TGI for the given molecules.
Only the number, expressed in µM, is required.

Fill in TGI for record COc1ccc(S(=O)(=O)Nc2cc(/C=C\c3cc(OC)c(OC)c(OC)c3)cc(OC)c2OC)cc1
0.122

Quote TGI reported for COc1ccc(P2(=S)Oc3ccc(C(c4ccccc4)(c4ccccc4)c4ccccc4)cc3O2)cc1 (stereo not given) please.
33.4

###

# System: IGROV1 ovarian
# method: NCI tumour cell line growth inhibition, 48 h
Task for the reader: assign each of the following compounds its reported TGI.

// Input: CCC(C(C)N1CC(=O)NC(=O)C1)N1CC(=O)NC(=O)C1 (stereo unspecified) . Output its TGI only.
> 100 µM

Please look at this compound and report its TGI: CN1CCN(CC(=O)Nc2cccc3ccccc23)CC1
> 100 µM

Answer with the recorded TGI for the compound listed here: CN=C(NN)NS(=O)(=O)c1cc(C)c(Cl)cc1S
> 100 µM

Given the compound NNC1=N/C(=C\c2ccccc2O)C(=O)N1 , write its reported TGI.
> 100 µM

Give the reported TGI for this compound. COc1cc(O)c2c(=O)c(OC)c(-c3ccc(OC)c(OC)c3)oc2c1.[Co]
> 100 µM

Specify measured TGI for COc1cccc2c1-c1ccccc1C2=O .
> 100 µM

State, in one line, measured TGI of CC(=O)OC/C=C(\C)CCC(Br)C(C)(C)Br (stereo unspecified)
> 10 µM

Fill in reported TGI for this entry: CCN(CC)c1ccc2cc(-c3nc(-c4ccccc4)n[nH]3)c(=O)oc2c1
57.9 µM

Hello, please tell me recorded TGI for this one: CNC(=O)C(C)C1C(=O)/C(=C(O)/C=C\C(C)=C\C(C)C2OC3(C)OC(C=CC34CO4)C2C)C(=O)N1C1CCC(O)C(C)O1 (stereo unspecified)
> 100 µM

Quickly give me recorded TGI for O=C1c2ccccc2C(=O)c2c(N=Nc3[nH]c(=S)[nH]c3O)cccc21
> 100 µM

Answer with reported TGI of COc1cccc([C@@]2(O)c3c(ccc(O)c3OC)[C@H]2OC)c1OC
> 100 µM
